# Target Entity: UniProt:P52333
# Sequence (P52333 whole entry): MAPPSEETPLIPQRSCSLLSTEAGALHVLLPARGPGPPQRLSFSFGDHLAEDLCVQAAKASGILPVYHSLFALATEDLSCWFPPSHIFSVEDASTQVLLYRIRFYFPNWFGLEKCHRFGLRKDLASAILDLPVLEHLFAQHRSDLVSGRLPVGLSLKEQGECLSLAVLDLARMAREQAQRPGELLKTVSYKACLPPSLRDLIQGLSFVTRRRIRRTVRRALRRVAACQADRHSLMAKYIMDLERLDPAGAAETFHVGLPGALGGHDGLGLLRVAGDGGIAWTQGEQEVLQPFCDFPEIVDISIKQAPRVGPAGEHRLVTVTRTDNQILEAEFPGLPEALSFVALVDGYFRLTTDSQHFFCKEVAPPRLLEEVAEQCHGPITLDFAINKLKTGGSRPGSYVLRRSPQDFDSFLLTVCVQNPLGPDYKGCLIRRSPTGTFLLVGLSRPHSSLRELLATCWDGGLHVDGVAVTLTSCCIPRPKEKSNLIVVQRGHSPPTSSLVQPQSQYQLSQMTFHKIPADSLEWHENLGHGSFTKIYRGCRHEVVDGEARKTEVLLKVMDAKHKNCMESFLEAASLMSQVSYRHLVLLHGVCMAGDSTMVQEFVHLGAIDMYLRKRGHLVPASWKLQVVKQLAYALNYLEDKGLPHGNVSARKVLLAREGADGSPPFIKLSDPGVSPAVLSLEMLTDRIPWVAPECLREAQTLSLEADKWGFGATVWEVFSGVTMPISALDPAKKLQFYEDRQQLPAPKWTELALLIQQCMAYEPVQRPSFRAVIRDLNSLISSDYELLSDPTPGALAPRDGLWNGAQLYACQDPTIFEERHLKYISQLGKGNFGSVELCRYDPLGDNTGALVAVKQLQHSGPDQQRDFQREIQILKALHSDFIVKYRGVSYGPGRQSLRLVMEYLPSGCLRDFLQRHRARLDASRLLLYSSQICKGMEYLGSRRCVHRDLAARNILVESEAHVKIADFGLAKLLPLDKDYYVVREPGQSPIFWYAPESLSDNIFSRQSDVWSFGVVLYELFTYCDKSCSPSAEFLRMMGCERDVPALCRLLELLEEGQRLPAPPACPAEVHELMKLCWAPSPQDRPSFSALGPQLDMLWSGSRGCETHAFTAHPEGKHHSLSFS
# Run Description: Biochemical JAK3 kinase assay (LanthaScreen)
# Set-up: GST; purchased Life Technologies
# Settings: selectivity: difference of pKi JAK3 and pKi JAK1
Assay Endpoint: JAK3 (pKi)-JAK1 (pKi)

> print(dat)
                                item.smiles     recorded.measurement
1  C=CC(=O)N1CC[C@H](Oc2cc(-c3ccc(O)c(F)c3)cc3[nH]nc(SC)c23)C1  B (a value of 2.3 to 3)
2  C=CC(=O)N1CC(C)(CNc2cc(-c3ccc(O)cc3)cc3[nH]ncc23)C1  B (a value of 2.3 to 3)
3  C=CC(=O)N1CC[C@H](Oc2cc(-c3ccc(O)c(F)c3)cc3[nH]nc(C)c23)C1  B (a value of 2.3 to 3)
